All figures here come from paper PMC5794198.

Attribute: CC50 at 72 h
Assay: C2C12 host cell cytotoxicity (cell ratio) in HCS assay
Type: cell-based, Mouse
Details: mouse, cell ratio, 72 h; read-out: C2C12 Cytotoxicity (CC50 ± SD)

O=C(Cn1ccnc1[N+](=O)[O-])NCc1ccccc1 [Benznidazole, benznidazole, reference compound]; > 100 µM
O=C1c2cccc3c(Cl)ccc(c23)C(=O)N1CCCN1CCN(CCCN2C(=O)c3cccc4c(Cl)ccc(c34)C2=O)CC1 [Compound 13]; > 2.5 µM

Turning now to a further record.
Reported CC50 at 72 h for C[N+]1(CCCN2C(=O)c3cccc4cccc(c34)C2=O)CCN(CCCN2C(=O)c3cccc4cccc(c34)C2=O)CC1 [Compound 12] was > 50 µM
